target: HLA-A*6801 (human); assay: 125I-probe peptide inhibition, purified HLA
Non-standard residues stand in square brackets, D forms with d. No end group written: not given here. Abu = CC[C@H](N)C(=O)O
reported_metric: IC50 (µM)
Numeric answer only, unit µM assumed.

Q. Sample SS[Abu]MGGMNK [p53.240 (9-mer SSBMGGMNK)] — what was its IC50?
A. 0.14

The values you see were collected from patent US20040048790A1.
